Tested on: CP194
Assay: qHTS profiling for inhibitors of Plasmodium falciparum proliferation (AID 504749);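 further: 0% = DMSO vehicle and full inhibition = artemisinin control; nearly all actives have a fitted effect of over 60% in size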
Settings: P. falciparum in erythrocytes, SYBR Green DNA, 72 h; series mostly up to 12.8 µM
Records with an inconclusive call do not appear. Activity calls are given as the source filed them. The call rests on the fitted dose curve; in most records, active means well fitted inhibition curve with a large enough effect; inconclusive means small, poorly fitted or top-dose-only effect; inactive means flat fitted curve, though single readings scatter.
reported-metric: outcome

CC[C@@]12CCCN3CCc4c(n(c5ccccc45)C(=O)C1)[C@H]32 = inactive
CC(C)NC[C@H](O)c1cc(O)cc(O)c1 = inactive
CC1(C)O[C@@H]2C[C@H]3[C@H]4C[C@H](F)C5=CC(=O)C=C[C@@]5(C)[C@@H]4[C@H](O)C[C@]3(C)[C@]2(C(=O)CO)O1 = inactive

* * *

Assay: qHTS Assay for Lipid Storage Modulators (AID 1519)
Settings: Drosophila S3 cells, BODIPY lipid droplet/cell ratio, laser cytometry; measured here: cell count channel max response; cells loaded with oleic acid
Results filed as inconclusive are left out.
Field: max response. Provide a value for each of the compounds that follow.
For clarity, give the value followed by its unit.

// recorded max response for N#CCCn1c(=O)c(-c2ccc(F)cc2)nc2cnc(OCc3ccccc3)nc21 : 0.762%

Given item CN(C)Cc1ccccc1-c1cncnc1NCc1cccs1 , the value recorded as its max response is 16.5%

Notebook: CC1(C)C(O)CC[C@]2(C)C1CC[C@@]1(C)C2C(=O)C=C2[C@@H]3C[C@@](C)(C(=O)O)CC[C@@]3(C)CCC21C (some centres undefined) , max response read as 16.2%

Query COc1ccc(-n2c(=O)c(CCc3ccccc3)nc3cnc(N4CCN(C)CC4)nc32)cc1 yields max response of 12.7%

So for O=c1c(-c2cc(F)cc(F)c2)nc2cnc(Oc3ccccc3)nc2n1C[C@H]1CCCO1 , the logged max response turned out to be 13.2%

Measured max response, CCOC(=O)c1c(C)cc(OC)cc1O : 3.28%

Item: COc1ccc2[nH]cc(CCNc3ncnc4ccc(-c5ccc(C(=O)N(C)C)cc5)cc34)c2c1 | max response: -23.3%

What the record says about CCNc1ncc2nc(-c3ccc(OC)cc3)c(=O)n(Cc3cccc(OC)c3)c2n1 : max response is -21.5%

The recorded max response for entry COc1ccc(C(=O)N2CCC3(CC2)CCN(C(c2ccccc2)c2ccccc2)CC3)cc1 equals 13.4%

Record NC(Cc1c[nH]c2ccccc12)C(=O)O (centres undefined) , field max response: 25.9%

The recorded max response for entry O=C(c1cc(C(F)(F)F)cc(C(F)(F)F)c1)N1CCC[C@@]2(CCN(c3ncccn3)C2)C1 equals 8.96%

GET /value?item= CN(C)Cc1ccccc1-c1nccc(Nc2ccc(F)cc2)n1 &field=max response returns 21.6%

Reported max response for C=C(C)[C@H]1CC=C(C)C(=O)C1 was -28%

// max response lookup, compound = COc1ccc2c(c1)[C@@]1(C)CCC[C@](C)(CO)C1CC2 (some centres undefined) , result: 17.7%

The compound listed as Cc1ccccc1-c1cncnc1NCCN1CCOCC1 shows max response equal to 0.273%

Per the record, COCC(=O)N1CCC2(CCCN(Cc3ccccc3OC)C2)CC1 has max response of 2.52%

Note to self: max response recorded for O=C(c1csnn1)N1CCC2(CCCN(c3cccc(-c4ccccc4)c3)C2)CC1 was 9.62%

Reported max response ( CS(=O)(=O)N1CCC[C@@]2(CCN(Cc3ccc(C#N)cc3)C2)C1 ) = -0.832%

get_value(item= CC(C)CN1CCCC2(CCN(C(=O)c3cnccn3)CC2)C1 , readout=max response) returns 5.13%

Input c1ccc(C(c2ccccc2)N2CC3(CCNCC3)C2)cc1 . Output max response: -0.423%

For record COc1ccccc1CN1CCC2(CC1)CCN(C(=O)c1cccn1C)CC2 the listed max response is 8.14%

Form field max response, entry COC(=O)N1CCC2(CCCN(c3ccncc3)C2)CC1 : 21.3%

Documented max response of Cn1cccc1C(=O)N1CCC2(CC1)CN(C(=O)Nc1cccc(C#N)c1)C2 : 11.3%

Briefly, max response measured for C[C@@H](C(=O)O)c1ccc(C(=O)c2cccs2)cc1 : -2.83%

// max response value for Cc1noc(C)c1C(=O)N1CCC[C@@]2(CCN(C(=O)Nc3ccccc3)C2)C1 : 3.75%

Item: O=C(Oc1ccccc1)N1CCC2(CCCN(c3ccncc3)C2)CC1 | max response: 1.04%

Recorded max response (compound N#Cc1ccccc1-c1ccc2ncnc(NCc3cccs3)c2c1 ): 0.851%

// max response value for O=C(c1ccncc1)N1CCC2(CCCN(c3ccncc3)C2)CC1 : -10.7%

The compound listed as COc1ccccc1CN1CCC2(CC1)CCN(C(=O)c1cccc(F)c1)CC2 has a reported max response of -4.91%

max response measured on COc1ccc(-c2cc(=O)c3c(OC)c(OC)c(OC)c(OC)c3o2)cc1 = -19.4%

Per the record, CN(C)Cc1ccccc1-c1ccc2ncnc(N(C)Cc3ccco3)c2c1 has max response of 7.91%

max response reported for this compound CC(=O)N1CCC2(CCCN(Cc3cc(C(F)(F)F)cc(C(F)(F)F)c3)C2)CC1 : 1.79%

The reported max response of the compound COCCn1c(=O)c(-c2ccccc2)nc2cnc(Nc3cccc(OC)c3)nc21 was -0.938%

The compound COCC(=O)N1CCC2(CC1)CCN(C(=O)NC(C)C)CC2 showed max response equal to 13.2%

Short answer for COC(=O)N1CCC2(CCN(Cc3ccccc3)CC2)CC1 : max response was -0.656%

What the record says about CC(=O)N1CCC2(CCN(Cc3ccccc3)CC2)CC1 : max response is -4.28%

max response recorded for this compound, O=C(c1ccco1)N1CCC2(CC1)CN(c1ccccn1)C2 , is 3%

Reported max response of CN1CCN(c2ncc3nc(-c4cc(F)cc(F)c4)c(=O)n(CCC#N)c3n2)CC1 : 25.2%

Noted for CN1CCCC[C@@H]1CCN1c2ccccc2Sc2ccc(S(C)=O)cc21 (some centres undefined) : its max response reads -6.84%

Reported max response of COc1ccc2[nH]cc(CCNc3ncnc4ccc(-c5ccccc5CN(C)C)cc34)c2c1 : -2.58%

Form field max response, entry c1ccc(-c2cccc(N3CCC4(CCNCC4)CC3)c2)cc1 : -17%

Kindly note the recorded max response for CN1CCc2c(cc(O)c(O)c2Cl)C(c2cccc(Cl)c2)C1 (centres undefined) , which is 26.1%

response.value for COc1ccc(NC(=O)N2CCC3(CC2)CCN(S(C)(=O)=O)CC3)cc1 (field: max response) = 16.5%

max response reading for Nc1ncnc2c1nc(Br)n2C1O[C@H]2COP(=O)(O)O[C@@H]2C1O (some centres undefined) : 27.3%
